Molecular target: RHA dsRBD2 (Homo sapiens, UniProt Q08211 165-264)
Sequence (Q08211 165-264): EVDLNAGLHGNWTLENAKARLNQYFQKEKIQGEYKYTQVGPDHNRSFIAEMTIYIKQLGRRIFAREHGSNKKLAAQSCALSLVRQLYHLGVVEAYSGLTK
Assay: ITC
pKd: −log10 of the molar value.
observed-property: pKd

[[record]]
binder = "siRNA21 duplex (dsRNA, 5' phosphate) RNA 1: AGACAGCAUUAUGCUGUCUUU RNA 2: AGACAGCAUUAUGCUGUCUUU"
value_measured = 4.87

